# Target Or Test System: amaranthin (Amaranthus caudatus)
# Procedure Summary: Hapten inhibition of amaranthin/asialo-ovine submaxillary mucin precipitation
# Format: binding
# Condition Summary: N-Acetylgalactosamine = 1

Compound: CC(=O)N[C@H]1[C@H](Oc2ccc([N+](=O)[O-])cc2)O[C@H](CO)[C@H](O)[C@@H]1O [p-NitrophenylN-acetyl-β-Zgalactosaminide]
Target Or Test System: amaranthin (Amaranthus caudatus)
Relative Inhibition potency ACA: < 0.3
--
Compound: CC(=O)N[C@H]1[C@H](O[C@H]2[C@@H](O)[C@@H](CF)O[C@H](OCc3ccccc3)[C@@H]2NC(C)=O)O[C@H](CO)[C@@H](O)[C@@H]1O [GlcNAcβ1,3[6-F]GalNAcα-O-benzyl]
Target Or Test System: amaranthin (Amaranthus caudatus)
Relative Inhibition potency ACA: < 0.08
--
Compound: CO[C@H]1O[C@H](CO)[C@H](O)[C@H](O)[C@H]1OC(=O)c1ccc([N+](=O)[O-])cc1
Target Or Test System: amaranthin (Amaranthus caudatus)
Relative Inhibition potency ACA: < 0.1
--
Compound: OC[C@H]1O[C@H](OC[C@H]2OC(O)[C@H](O)[C@@H](O)[C@@H]2O)[C@H](O)[C@@H](O)[C@H]1O (stereo partly shown)
Target Or Test System: amaranthin (Amaranthus caudatus)
Relative Inhibition potency ACA: < 0.008

====

# Target Or Test System: amaranthin (Amaranthus caudatus, UniProt Q71QF2)
# Sequence (Q71QF2 entry or part of it): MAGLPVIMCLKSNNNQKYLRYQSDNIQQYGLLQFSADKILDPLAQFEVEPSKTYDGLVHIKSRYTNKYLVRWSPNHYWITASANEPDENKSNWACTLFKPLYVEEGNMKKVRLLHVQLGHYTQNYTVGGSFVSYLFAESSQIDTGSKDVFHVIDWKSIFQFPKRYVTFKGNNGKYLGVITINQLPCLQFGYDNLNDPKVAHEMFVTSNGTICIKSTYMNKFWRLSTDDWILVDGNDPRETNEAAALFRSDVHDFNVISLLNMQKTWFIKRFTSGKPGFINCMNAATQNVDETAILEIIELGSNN
Label key: Satisfied means IC50 under 100 µM; Not satisfied means IC50 of 100 µM or more.

Compound: CO[C@H]1O[C@H](CO)[C@H](O)[C@H](O)[C@H]1NC(=O)c1ccc([N+](=O)[O-])cc1
Class Name: Not satisfied

Compound: CC(=O)N[C@H]1[C@@H](Oc2ccc([N+](=O)[O-])cc2)O[C@H](CO)[C@H](O)[C@@H]1O [p-NitrophenylN-acetyl-α-galactosiminide]
Class Name: Not satisfied

Compound: CC(=O)N[C@H]1[C@H](OC[C@H]2OC(O)[C@H](O)[C@@H](O)[C@H]2O)O[C@H](CO)[C@H](O)[C@@H]1O (stereo partly drawn) [GalNAcβ1,6Gal]
Class Name: Not satisfied

Compound: CC(=O)N[C@H]1[C@@H](OCc2ccccc2)O[C@H](CF)[C@H](O)[C@@H]1O[C@@H]1O[C@H](CO)[C@H](O)[C@H](O)[C@H]1O [Galβ1,3[6-F]GalNAcα-O-benzyl]
Class Name: Satisfied

Compound: CC(=O)N[C@H]1[C@@H](OC[C@H]2OC(O)[C@H](O)[C@@H](O)[C@H]2O)O[C@H](CO)[C@H](O)[C@@H]1O (stereo partly drawn) [GalNAcα1,6Gal]
Class Name: Not satisfied

Compound: CO[C@H]1O[C@H](CO)[C@H](O)[C@H](O)[C@H]1NC(=O)c1ccccc1 [Methyl (2-N-benzamido)-α-galactosaminide]
Class Name: Not satisfied

Compound: CO[C@H]1O[C@H](CO)[C@H](O)[C@H](O)[C@H]1OC(C)=O [Methyl (2-O-acetyl)-α-galactoside]
Class Name: Not satisfied

Compound: CC(=O)N[C@H]1CO[C@H](CO)[C@H](O)[C@@H]1O[C@@H]1O[C@H](CO)[C@H](O)[C@H](O)[C@H]1O
Class Name: Satisfied

Compound: C=CCO[C@H]1O[C@H](CO)[C@H](O)[C@H](O[C@@H]2O[C@H](CO)[C@H](O)[C@H](O)[C@H]2O)[C@H]1NC(C)=O [Galβ1,3GalNAcα-O-CH2 CH = CH2]
Class Name: Satisfied
